These measurements were taken from PubChem BioAssay.

test: inhibitors of larval lipid processing in zebrafish, primary screen, whole organism, PED6 fluorescence, gall bladder and intestine (AID 686); conditions: Zebrafish larvae PED6 lipid processing, fluorescence scoring; screened at 20 µM (by protocol);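 note: larvae 5 to 7 days old with five fish per well; signal comes from phospholipase A2 cleavage of quenched PED6 carried via bile; overnight exposure to compound and PED6 before scoring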
Activity calls are given as the source filed them.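 Rule for the calls: active = a full or partial loss of lipid-probe fluorescence in the fish gall bladder, intestine or both, judged by eye; inactive = no fluorescence loss, or compound toxic to the fish.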
Allowed answers: Yes for active, No for inactive

| compound | assigned.class |
| --- | --- |
| CCCNC(=O)N1CCN(S(=O)(=O)c2ccc(C)c(C)c2)CC1 | No |

Outcome logged for CC(C)(C)n1ncc2c(=O)n(CC(=O)NCc3ccccc3)cnc21 in this assay:
No

Another compound to look at: COc1ccc(OC)c(NC(=O)C23CCC(C)(C(=O)C2)C3(C)C)c1 (configuration not stated)
No

Another compound to look at: O=C(CSc1ccc(-c2ccccc2)nn1)N1CCOCC1
No

Another compound to look at: Cc1cc(C(=O)Nc2c(C)n(C)n(-c3ccccc3)c2=O)c(C)o1
No

Another compound to look at: O=C(Nc1cccnc1)c1cc2c(ccc3ccccc32)o1
No

Another compound to look at: CCCN1Cc2cccc(C(=O)NC3CCCC3)c2C1=O
No

Another compound to look at: O=C(Cc1cccs1)N(c1ccccc1)C1C=CS(=O)(=O)C1 (configuration not stated)
No
